# TESTED_SYSTEM: the molecule itself
# PROTOCOL_NOTES: crystal structure; hanging-drop vapor diffusion at 20°C; 20–30% PEG 4000 or PEG 6000, 0.2 M MgCl2, 100 mM Tris–HCl pH 8.5; protein 10–15 mg/ml; space group P212121

[
  {
    "PROTEIN": "EcAIII variant RDM1-12, mature (processed into α/β subunits) (complex, Escherichia coli, EcAIII of Escherichia coli, α subunit: cut product up to the scissile bond Gly178-Thr179; residues 158-178 not visible in the structure; EcAIII of Escherichia coli, β subunit beginning at Thr179, with the substitutions of RDM1-12; source: E. coli BL21 Gold, purified (DEAE-Sepharose, SEC); copies: 2 + 2) chain 1: MGKAVIAIHGGAGAISRAQMSLQQELRYIEALSAIVETGQKMLEAGESALDVVTEAVRLLEECPLFNAGIGAVFTRDETHELDACVMDGNTLKAGAVAGVSHLRNPVLAARLVMEQSPHVMMIGEGAENFAFARGMERVSPEIFSTSLRYEQLLAARKEGATVLDHSGAPLDEKQKMG chain 2: TVGAVALDLDGNLAAATSTGGMTNKLPCTVGAAPLVGAGCYANNASVAVSCTGTGEVFIRALAAYDIAALMDYGGLSLAEACERVVMEKLPALGGSGGLIAIDHEGNVALPFNTEGMYRAWGYAGDTPTTGIYREKGDTVATQ",
    "binding result": "binds"
  }
]

Data origin: paper PMC9248843
